Molecular target: T1, full-length hCDCP1 with N-terminal c-Myc tag (expression vector GS01), on Ba/F3-hCDCP1 cells or … (human, UniProt Q9H5V8 30-836)
T1 construct: also called human CDCP1; hCDCP1 forced expression cells
T1 sequence: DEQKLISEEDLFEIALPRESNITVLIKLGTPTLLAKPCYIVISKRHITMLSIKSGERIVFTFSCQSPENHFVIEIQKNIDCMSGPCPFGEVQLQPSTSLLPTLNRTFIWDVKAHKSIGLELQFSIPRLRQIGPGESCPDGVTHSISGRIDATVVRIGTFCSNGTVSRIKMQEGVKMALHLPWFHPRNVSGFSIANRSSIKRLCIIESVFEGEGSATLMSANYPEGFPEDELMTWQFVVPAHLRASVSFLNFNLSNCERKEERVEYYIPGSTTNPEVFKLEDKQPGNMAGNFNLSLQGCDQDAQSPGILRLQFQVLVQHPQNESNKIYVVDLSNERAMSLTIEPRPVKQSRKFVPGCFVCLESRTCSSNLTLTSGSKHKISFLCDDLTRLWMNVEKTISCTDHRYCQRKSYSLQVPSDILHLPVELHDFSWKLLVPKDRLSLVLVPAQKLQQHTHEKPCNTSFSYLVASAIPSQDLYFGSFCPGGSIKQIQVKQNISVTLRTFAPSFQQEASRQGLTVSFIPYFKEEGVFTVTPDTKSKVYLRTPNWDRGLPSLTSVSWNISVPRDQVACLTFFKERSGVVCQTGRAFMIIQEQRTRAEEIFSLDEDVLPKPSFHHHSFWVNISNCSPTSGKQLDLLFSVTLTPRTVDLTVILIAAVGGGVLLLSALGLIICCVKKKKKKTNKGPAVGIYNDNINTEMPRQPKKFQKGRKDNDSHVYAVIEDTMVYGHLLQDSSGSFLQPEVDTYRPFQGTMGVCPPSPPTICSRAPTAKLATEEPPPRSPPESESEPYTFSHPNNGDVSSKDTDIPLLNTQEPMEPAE
Test: flow cytometry on Ba/F3-hCDCP1 cells
Value type: binding result

INSERT INTO results (binder, measurement) VALUES
  ('mh14A025HCori/LCori (antibody, human IgG1, kappa, V domains shown, mouse-human chimeric antibody, human IgG1/kappa constant regions; also called mh14A025HCori/LCori-biotin (biotinylated form)) VH: EVQLQESGAELVRPGALVKLSCKASGFNIKDYYMHWVKQRPEQGLEWIGWIDPENGNTIYDPKFQGKASITADTSSNTAYLQLSSLTSEDTAVYYCGGLLYAMDYWGQGTSVTVSS VL: DIQMTQTTSSLSASLGDRVTISCRASQDISNYLNWYQQKPDGTVKLLIYFTSRLHSGVPSRFSGSGSGTDYSLTISNLEQEDIATYFCQQGNTLPRTFGGGTKLEIRR', 'binds'),
  ('mh12A041HCori/LCv1 (antibody, human IgG1, kappa, V domains shown, mouse-human chimeric antibody, human IgG1/kappa constant regions) VH: EVQLQESGPGILQPSQTLSLTCSFSGFSLSTSGMGVSWIRQPSGKGLEWLAHIYWDDDKRYNPSLKSRLTISKDTSSNQVFLKITSVDTADTATYYCARSGSYYGSSLDCWGQGTTLTVSS VL: DVLMTQTPLSLPVSLGDQASISCRSSQSIVHSSGNTYLEWYLQKPGQSPKLLIYKVSNRFSGVPDRFSGSGSGTDFTLKISRVEAEDLGVYYCFQGSHVPWTFGGGTKLEIRR', 'binds'),
  ('mh14A043HCori/LCv1 (antibody, human IgG1, kappa, V domains shown, mouse-human chimeric antibody, human IgG1/kappa constant regions) VH: EVQLQESGAELVRPGALVKLSCKASGFNIKDYYMNWVKQRPEQGLEWIGWIDPENGNTIYDPKFQGKASITADTSSNTAYLQLSSLTSEDTAVYYCYGSSYRFTYWGQGTLVTVSS VL: QIVLIQSPALMSASPGEKVTMTCSASSSVSYLYWYQQKPRSSPKPWIYLTSNLASGVPARFSGSGSGTSYSLTISSMEAEDAATYYCQQWSSNPFTFGSGTKLEIKR', 'binds');
